Assay: Hydrolytic stability: hydrolysis of the 19F fluorosilane to the silanol at physiological pH (7.0)
Assay type: physicochemical
Details: hydrolytic halflife of the 19F compound at pH 7.0, calculated from the kinetics
assay-metric: t1/2

CC(C)C[Si](F)(CC(C)C)c1ccc(COC2CCCCO2)cc1 (racemic) : 8.1 h

Let us move to another entry and its t1/2.
Would you kindly share the measured t1/2 for `CC(C)C[Si](F)(CC(C)C)c1ccc(C(=O)O)cc1` ?
3.5 h

====

Test: Hydrolytic stability: hydrolysis of the 19F fluorosilane to the silanol at physiological pH (7.0)
Format: physicochemical
Conditions: hydrolytic halflife of the 19F compound at pH 7.0, calculated from the kinetics
Recorded t1/2 values for a group of compounds are listed next.
Numeric only. Scale: h

Completed entries (count: 3):
CC(C)[Si](F)(c1ccc(CCC(=O)O)cc1)C(C)C : 59.0
F[Si](c1ccccc1)(c1ccccc1)c1ccc(CCOC2CCCCO2)cc1 (racemic) : 0.07
CC(C)C[Si](F)(CC(C)C)c1ccc(CC(=O)O)cc1 : 8.7

Now for another entry.
Form field: reported t1/2 of `CC(C)[Si](F)(c1cccc(CC(=O)O)c1)C(C)C`
20.0
